# assay system: D(3) dopamine receptor (Homo sapiens, UniProt P35462)
# Sequence (P35462 as listed by the source): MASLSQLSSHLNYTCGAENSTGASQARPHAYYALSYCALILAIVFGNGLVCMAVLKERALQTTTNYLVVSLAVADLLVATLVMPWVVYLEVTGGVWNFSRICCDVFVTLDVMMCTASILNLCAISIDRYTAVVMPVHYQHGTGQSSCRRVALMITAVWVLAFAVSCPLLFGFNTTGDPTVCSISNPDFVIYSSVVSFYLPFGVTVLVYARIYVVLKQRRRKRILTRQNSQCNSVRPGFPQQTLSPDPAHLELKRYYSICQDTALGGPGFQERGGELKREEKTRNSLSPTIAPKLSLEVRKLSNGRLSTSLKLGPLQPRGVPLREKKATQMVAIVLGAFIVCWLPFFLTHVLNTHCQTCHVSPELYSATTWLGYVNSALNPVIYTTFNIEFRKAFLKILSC
Assignment: determine reported pKi for the given compounds.
Remember, pKi is on a log scale: it is -log10 of the molar concentration.

INPUT: Can you share its pKi? I mean this compound: CCCN1CCO[C@@H]2c3cc(C(N)=O)ccc3CC[C@H]21 [S32504 (+)]
OUTPUT: 8.05

INPUT: Now give it for CCCN1CCOC2c3cc(C(N)=O)ccc3CCC21 (configuration not stated) too.
OUTPUT: 8.05

----------
Target protein (sequence): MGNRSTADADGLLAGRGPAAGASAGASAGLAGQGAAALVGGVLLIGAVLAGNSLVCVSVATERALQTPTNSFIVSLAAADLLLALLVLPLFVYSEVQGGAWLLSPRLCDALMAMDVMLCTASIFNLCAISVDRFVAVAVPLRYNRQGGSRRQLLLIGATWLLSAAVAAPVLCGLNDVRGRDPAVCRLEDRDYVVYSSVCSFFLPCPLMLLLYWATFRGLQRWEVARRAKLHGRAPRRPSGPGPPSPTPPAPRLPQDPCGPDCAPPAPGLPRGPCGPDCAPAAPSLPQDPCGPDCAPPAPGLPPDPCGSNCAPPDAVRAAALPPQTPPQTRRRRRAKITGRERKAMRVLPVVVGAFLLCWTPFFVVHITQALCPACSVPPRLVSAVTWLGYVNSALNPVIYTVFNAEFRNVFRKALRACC
measurement kind: Ki (µM)
Give your result in µM as a bare value.

INPUT: Can you share its Ki? I mean this molecule: CCCN1CCO[C@@H]2c3cc(C(N)=O)ccc3CC[C@H]21 [S32504 (+)]
OUTPUT: 5.13
